# Tested on: porcine trabecular meshwork (PTM) cells
# PROCEDURE_SUMMARY: Cell-based porcine trabecular meshwork (PTM) assay, actin-fiber length
# Design: key: +++: More active than control-; ++: As active as control; +: Less active than control; −: Inactive
# EXPERIMENTAL_SETUP: activity at 50 μM as compared to control
# Description: Cell-based porcine trabecular meshwork (PTM) assay. The anterior section of porcine eyes was harvested within 4 hours post-mortem. The iris and ciliary body were removed and trabecular meshwork cells were harvested by blunt dissection. Finely minced trabecular meshwork tissue was plated into collagen-coated 6-well plates in Medium-199 containing 20% fetal bovine serum (FBS). After two passages at confluence, cells were transferred to low-glucose DMEM containing 10% FBS. […]
MEASUREMENT_NAME: PTM Cell Assay Result

Example entries begin here.
>  <COMPOUND>
COc1cc(/C=N/NC(=O)CNc2cccc(Cl)c2)nc(OC)n1

>  <MEASURED_RESULT>
+

$$$$
>  <COMPOUND>
O=C(CNc1cccc(C(=O)Nc2ccccc2)c1)N/N=C/c1ccncc1 [drawing 113]

>  <MEASURED_RESULT>
++

$$$$
>  <COMPOUND>
CNC(=O)c1cccc(NCC(=O)N/N=C/c2c(Cl)cncc2Cl)c1 [drawing 118]

>  <MEASURED_RESULT>
+

$$$$
>  <COMPOUND>
O=C(CNc1cccc(C(=O)Nc2cccnc2)c1)N/N=C/c1ccncc1 [drawing 114]

>  <MEASURED_RESULT>
++

$$$$
>  <COMPOUND>
C/C(=N\NC(=O)CNc1cccc(C(=O)Nc2ccccc2)c1)c1ccncc1 [drawing 119]

>  <MEASURED_RESULT>
+

$$$$

Q: Recorded PTM Cell Assay Result of `COc1ccc(Oc2cccc(NCC(=O)N/N=C/c3ccncc3)c2)cc1` , please.
A: +

Q: Endpoint output: PTM Cell Assay Result of O=C(CNc1cccc(C(=O)NCCN2CCOCC2)c1)N/N=C/c1c(Cl)cncc1Cl [drawing 116] . Value?
A: +

Q: What value of PTM Cell Assay Result has been recorded for this entry: O=C(CNc1cccc(C(=O)Nc2ccccc2)c1)N/N=C/c1c(Cl)cncc1Cl [drawing 112]
A: ++

Q: Any idea what its PTM Cell Assay Result is? The compound is `O=C(CNc1ccc(Oc2ccccc2)cc1)N/N=C/c1c(Cl)cncc1Cl`
A: +
